From: the Immune Epitope Database (IEDB)

Molecular target: HLA-A*03:01
Test: IEDB peptide-MHC binding, purified MHC/competitive/radioactivity; filed as Kd, often an IC50 or EC50 that approximates it; bounds were set here for any values at or beyond the usual limits of such assays
Details: source organism: Triticum aestivum
property_name: Kd (µM)
One number for each entry, in µM.

Param item = QQQQQQQQQK ; retrieve measured Kd.
11.2

###

Molecular target: HLA-A*33:01
Assay: IEDB peptide-MHC binding, purified MHC/competitive/radioactivity; filed as Kd, often an IC50 or EC50 that approximates it; bounds were set here for any values at or beyond the usual limits of such assays
Conditions: source organism: Mammarenavirus machupoense
property_name: Kd

Param item = TMLRNSELCH ; retrieve measured Kd.
≥ 70 µM
